Biological target: BRD4 BD1 (Homo sapiens, UniProt O60885)
Test: TR-FRET assay, BRD4 BD1
Settings: TR-FRET
Protocol: The specificity of the designed and synthesized compounds for BRD4 was also evaluated through comparison with those for BRD2. As acetylated histone peptides are known substrates for bromodomain-containing proteins, we initially screened the complexes for their ability to modulate the protein–protein interaction between acetylated lysine and BET family members. […]
REPORTED PROPERTY: IC50 (nM)
State the answer as a number, implicitly in nM.

Memo: COc1cc(OC)c2c(=O)cc(-c3cc(C)c(OC[C@H](O)CN4CCCCC4)c(C)c3)oc2c1 , reported IC50: 67

Data origin, for the record: paper PMC7381267
